protocol description: chemical genetic growth profiling, strain panel (AID 1159580);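 further: tested at 20 µM; growth read once vehicle control cultures reached saturation at 30 °C; 1 = growth at the plate median or of vehicle wells; lower values mean less growth of the strain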
assay context: S. cerevisiae deletion strains, growth OD, locus YGR135W, strain pre9
About 2,000 (36%) of roughly 5,500 compounds were called active. Roughly 18% stayed inconclusive and do not appear here. No stated cut-off is given here; in the data, active means normalized growth mostly below about 0.91 (no sharp cut-off); inconclusive means no clear call, values can overlap the other calls; inactive means mostly above about 0.92. This is one part of the list.
Classes used: 1 (active), 0 (inactive)

molecule	class
Nc1nc2ncc(CNc3ccc(C(=O)N[C@@H](CCC(=O)O)C(=O)O)cc3)nc2c(=O)[nH]1	0
CC[C@@]1(C2O[C@@H](C3O[C@@](O)(CC)[C@H](C)C[C@@H]3C)C[C@@H]2C)CC[C@H]([C@]2(C)CCC3(C[C@H](O)[C@@H](C)[C@@H]([C@H](C)[C@@H](OC)[C@H](C)C(=O)O)O3)O2)O1 (some centres undefined)	0
Oc1cc(O)cc(/C=C/c2ccccc2)c1	0
CN(C)CCCO[C@H]1[C@@H](C(O)CO)OC2OC(C)(C)O[C@@H]21 (some centres undefined)	0
COc1ccc(/C=C/c2cc(O)cc(O)c2)cc1	1
C[C@@]12C(=O)OC(=O)[C@]1(C)C1CCC2O1	1
COc1c(C2COc3cc4c(cc3C2=O)CC(O)C(C)(C)O4)ccc2c1CCC(C)(C)O2 (centres undefined)	0
CCOC(=O)CCCCCCCCCCCCC1C=CCC1 (centres undefined)	1
Nc1nc(N)c2nc(CNc3ccc(C(=O)NC(CCC(=O)O)C(=O)O)cc3)cnc2n1 (centres undefined)	0
